The entries below are paired with their reported CRF1R Emax %.
- targetSystem: corticotropin releasing factor 1 receptor
- measurementProtocol: cell-based or functional assay
Ends that are not written are not given here.
Please report the result as a number followed by the unit.

Exercise: Would you mind telling me what CRF1R Emax % value was observed for ZGPPISIDLPTWLLRKVIEIEKQEKEKQQAANNARLLARI (C-terminal amide) [SEQ ID NO 291] ?
Key: 4.75%

Exercise: Param item: ZGPPISIDLSLELLRKMIEIEKQEKEKQQAANNRLLLDTI (C-terminal amide) [SEQ ID NO 355]
Key: 100%

Exercise: Param item: DNPSLSIDVPLFLLRTLLELEKTQSQRERAEQNARIFARV-NH2 [SEQ ID NO 385]
Key: 46%

Exercise: Param item: NDDPPISIDLPLILLRNMIEMARIENEREQAGLNAKYLAEV-NH2 [SEQ ID NO 269]
Key: 44.3%

Exercise: Param item: ZGPPISIDLPFQLLRKVIEIEKQEKEKQQAANNARLLDTI (C-terminal amide) [SEQ ID NO 278]
Key: 48.7%

Exercise: Param item: NDDPPISIDLPLLLLRNMIEMARIENEREQAGLNAKYLAEV-NH2 [SEQ ID NO 268]
Key: 14.2%

Exercise: Param item: ZGPPISIDLPIILLRKMIEIEKQEKEKQQAANNARLLARI (C-terminal amide) [SEQ ID NO 290]
Key: 6.4%

Exercise: Param item: ZGPPISIDLPLELLRKMIEIEKQEKEKQQAANNALLLATI (C-terminal amide) [SEQ ID NO 234]
Key: 96%

Exercise: Param item: ZGPPISIDLPQFLLRKMIEIEKQEKEKQQAANNRLLLDTI (C-terminal amide) [SEQ ID NO 221]
Key: 100%

Exercise: Param item: ZGPPISIDLPYHLLRKVIEIEKQEKEKQQAANNALLLDTI (C-terminal amide) [SEQ ID NO 312]
Key: 62%

Values compiled from patent US20030148956A1.
